test system: MALME-3M melanoma; test: NCI-60 one-dose screen, 48 h (100 = growth as untreated, 0 = no growth, -100 = all killed); conditions: 10 µM unless noted
Compounds without any hit were thinned out: in the full panel of roughly 83,000, 20% have a hit.
Consider the following compounds and their measured growth readings.
Numbers only; they are read as %.

Previously resolved entries follow.
Compound	Observed Property	Observed Result
Cc1nc2cc(Nc3nc(Nc4ccc(F)cc4)nc(-c4ccc(Cl)cc4)n3)ccc2n1Cc1ccccc1	growth	72.5
COC1(OC)C2(Cl)C=C(c3ccccc3)C1(Cl)C(Cl)=C2Cl (configuration not stated)	growth	97.9
COc1ccc(OC)c(/C=C2\Oc3cc(O)ccc3C2=O)c1	growth	76
COc1cccc(Nc2nc(NCCO)c3ccccc3n2)c1	growth	75.7
COc1cc(/C=C/C(=O)CC(=O)/C=C/c2cc(Br)c(OC)c(OC)c2)cc(Br)c1OC	growth	96.6
O=C1CC(c2ccsc2)c2snc(-c3ccc(Cl)cc3)c2N1 (configuration not stated)	growth	37.7

Incoming: Can you look up the measured growth of O=C1CC2c3cc(-c4cc5ccccc5o4)ccc3CCN2C(=O)N1c1ccccc1 (configuration not stated) for me?
Outgoing: 71.6

Incoming: Param item: `CC(C)OC1=C(Cl)C(=O)c2ccccc2C1=O`
Outgoing: 111

Incoming: Try `COC(=O)c1c2c(c(C)[n+]([O-])c1C)C(=O)C(NCc1ccc(O)cc1)=CC2=O` next.
Outgoing: -98.5

Incoming: Subsequent entry: `COc1cc(/C=C2\C(=O)N(c3c(Cl)cccc3Cl)c3ccccc32)cc(OC)c1O`
Outgoing: 133

Incoming: # iterate: `O=S(=O)(Nc1ncccn1)c1ccc(Nc2ccc3nnc(-c4ccncc4)n3n2)cc1`
Outgoing: 97.6

Incoming: Again, but for `Cc1nc2cc(Nc3nc(NCCN)nc(Nc4ccc(F)cc4)n3)ccc2n1Cc1ccccc1`
Outgoing: 93.5

Incoming: Queued: `NS(=O)(=O)c1cc(Br)c2c(c1)S(=O)(=O)NCN2`
Outgoing: 121

###

test system: M14 melanoma; experiment: NCI-60 one-dose screen, 48 h; details: 10 µM unless noted
This is part of a sample that, as a whole, favours compounds with a hit. Of some 83,000 tested, about 20% had one in any assay. Active and inactive are the calls of the source. How the source made its calls: active means growth percent below 10; inactive means the rest.
Allowed answers: yes (active), no (inactive)

Worked cases, answers included:
Compound	Assayed System	Cat
COc1ccc(-n2ncc3c4nc(OC)c(S(=O)(=O)c5ccccc5)cc4ccc32)cc1	M14 melanoma	no
Clc1ccc(C2=NN(c3ccccc3)[C@H](c3cn(-c4ccccc4)nc3-c3ccccc3)C2)cc1	M14 melanoma	no
N#CC1=C(N)Oc2cc(N)ccc2C1c1ccc(F)cc1 (stereo not given)	M14 melanoma	no
CC(C)NCC(O)COc1ccc(CCOCC2CC2)cc1 (stereo not given)	M14 melanoma	no

Continue with the compound presented below.
Incoming: Dear all, I need the recorded test outcome for `COc1ccc(-c2nc3sccn3c2/C=C/C(=O)c2cc(OC)c(OC)c(OC)c2)cc1OC` , thank you.
Outgoing: yes

###

test system: MOLT-4 leukemia; experiment: NCI-60 one-dose screen, 48 h; settings: 10 µM unless noted
The panel holds about 83,000 compounds, 20% with a hit somewhere; the sample as a whole holds those more often. The source made the active and inactive calls. Rule for the calls: active = growth percent below 10; inactive = the rest.
Please state which outcome applies, choosing from 1 for active, 0 for inactive

Compound	Cat
Cc1nc2cc(Nc3nc(Nc4ccc(F)cc4)nc(N4CCN(C)CC4)n3)ccc2n1Cc1ccccc1	1
COc1cc(/C=C/c2cc(/C=C/c3ccc(O)c(OC)c3)n(-c3ccccc3)n2)ccc1O	1
CCC12CCC3c4ccc(O)cc4CCC3C1CC(O)C2O (stereo not given)	0

Incoming: I would be grateful if you could indicate the recorded call for `O=C(COc1cccc(/C=C2\COc3ccccc3C2=O)c1)c1ccccc1` .
Outgoing: 1

Incoming: For `Cc1c(C(=O)Nc2nc(-c3ccccc3)cs2)nnn1-c1cccc2ccccc12` then?
Outgoing: 0

Incoming: Same question for `COc1cc2cc(Oc3ccc(NC(=O)Nc4ccc(Cl)c(C(F)(F)F)c4)cc3)c(C)nc2cc1OCCN1CCCCC1` please.
Outgoing: 1

Incoming: What would you report for `CCOc1ccc(/C=N\N2CCCCCC2)cc1OCC` ?
Outgoing: 0

Incoming: Now this one: `COc1ccc(-c2[nH]ncc2Nc2cc(OC)c(OC)c(OC)c2)cc1`
Outgoing: 0

Incoming: Ok, now `COc1ccc(NS(=O)(=O)c2ccc(-c3cnc(C4CC4)o3)cc2)cc1`
Outgoing: 0

Incoming: Then this compound: `NS(=O)(=O)c1cc(Br)c2c(c1)S(=O)(=O)NCN2`
Outgoing: 0
